Measured Ki, listed per entry.
- TEST_SYSTEM: human NK3 receptor (Homo sapiens)
- ASSAY_METHOD_TEXT: [3H]SR142801 competition binding assay (hNK3 receptor binding)
- TEST_SETTINGS: [3H]SR142801 radioligand; membranes from HEK293 cells transiently expressing recombinant human NK3 receptor; Ki by Cheng-Prussoff; read-out: KiNK3 h
Give the number; nM is assumed, so skip it.

[
  {
    "COMPOUND": "C[C@H](Oc1ccc(C#N)cn1)[C@H]1CN(C(=O)c2ccc(-c3nnco3)cc2)C[C@@H]1c1ccc(Cl)c(Cl)c1 (racemic)",
    "RESULT_UNITS": "nM",
    "Ki": 2.1
  },
  {
    "COMPOUND": "Cc1cc(C(=O)N2C[C@H]([C@H](C)Oc3ccc(C(F)(F)F)cn3)[C@@H](c3ccc(Cl)cc3)C2)cnn1",
    "RESULT_UNITS": "nM",
    "Ki": 3
  }
]

Task item: Item under review: COc1ncc(C(=O)N2C[C@H]([C@H](C)Oc3ccc(C#N)cn3)[C@@H](c3ccc(Cl)c(Cl)c3)C2)cn1 (racemic) . Reported Ki?
Reply: 34.9

Task item: Query C[C@@H](Oc1ccc(Cl)cn1)[C@@H]1CN(C(=O)c2ccc(CCN(C)C)cc2)C[C@H]1c1ccc(Cl)c(Cl)c1 next
Reply: 11.8

Task item: Query Cc1cc(C(=O)N2C[C@H]([C@H](CO)Oc3ccc(Cl)cn3)[C@@H](c3ccc(F)c(F)c3)C2)cnn1 next
Reply: 28

Task item: Query C[C@H](Oc1ccc(C(F)(F)F)cn1)[C@H]1CN(C(=O)c2cnc(C3CC3)nc2)C[C@@H]1c1ccc(Cl)c(Cl)c1 (racemic) next
Reply: 7.5

Task item: Query C[C@@H](Oc1ccc(Cl)cn1)[C@@H]1CN(C(=O)c2ccc(S(C)(=O)=O)nc2)C[C@H]1c1ccc(Cl)c(Cl)c1 (racemic) next
Reply: 12.5

----------
Measured log10 Ki, listed per entry.
- TEST_SYSTEM: human NK3 receptor (Homo sapiens, UniProt P29371)
- Construct: expressed in transfected cells; host or cells: HEK293 cells (transient expression), membrane preparation
- Sequence (P29371 1-465): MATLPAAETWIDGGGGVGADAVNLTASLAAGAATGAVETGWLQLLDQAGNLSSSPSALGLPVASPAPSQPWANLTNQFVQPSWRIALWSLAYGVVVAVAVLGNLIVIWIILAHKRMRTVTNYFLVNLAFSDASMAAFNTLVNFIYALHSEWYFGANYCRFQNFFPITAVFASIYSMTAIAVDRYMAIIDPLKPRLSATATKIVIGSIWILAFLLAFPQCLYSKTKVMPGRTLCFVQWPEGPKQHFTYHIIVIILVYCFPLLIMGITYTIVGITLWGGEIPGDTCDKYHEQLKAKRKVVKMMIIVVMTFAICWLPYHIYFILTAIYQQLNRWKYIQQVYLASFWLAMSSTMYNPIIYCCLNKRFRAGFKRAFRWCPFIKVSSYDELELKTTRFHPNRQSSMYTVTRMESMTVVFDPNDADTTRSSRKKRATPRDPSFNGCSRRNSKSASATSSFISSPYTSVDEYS
- ASSAY_METHOD_TEXT: [3H]SR142801 competition binding assay (hNK3 receptor binding)
- TEST_SETTINGS: [3H]SR142801 radioligand; membranes from HEK293 cells transiently expressing recombinant human NK3 receptor; Ki by Cheng-Prussoff; read-out: KiNK3 h
Heads up, the numbers here are log10 of Ki in nM units.

[
  {
    "MOLECULE": "C[C@H](Oc1ccc(C#N)cn1)[C@H]1CN(C(=O)c2ccc(-n3cccn3)nc2)C[C@@H]1c1ccc(Cl)c(Cl)c1 (racemic)",
    "log10 Ki": 0.41
  },
  {
    "MOLECULE": "Cc1ncc(C(=O)N2CC(c3ccc(Cl)c(Cl)c3)[C@@H]([C@H](C)Oc3ccc(Cl)cn3)C2)cn1 (single isomer, unassigned)",
    "log10 Ki": 0.83
  },
  {
    "MOLECULE": "Cc1cc(C(=O)N2C[C@H]([C@H](C)Oc3ccc(C#N)cn3)[C@@H](c3ccc(F)c(F)c3)C2)cnn1",
    "log10 Ki": 1.49
  }
]

Task item: Item under review: CSc1ccc(C(=O)N2C[C@@H]([C@@H](C)Oc3ccc(Cl)cn3)[C@H](c3ccc(Cl)c(Cl)c3)C2)cn1 (racemic) . Reported log10 Ki?
Reply: 0.86

Task item: Query C[C@@H](Oc1ccc(Cl)cn1)[C@@H]1CN(C(=O)c2ccc(F)nc2)C[C@H]1c1ccc(Cl)c(Cl)c1 (racemic) next
Reply: 1.44

Task item: Query C[C@@H](Oc1ccc(Cl)cn1)[C@@H]1CN(C(=O)c2ccc(C#N)cc2)C[C@H]1c1ccc(Cl)c(Cl)c1 (racemic) [Example 49] next
Reply: 1.35
